src = patent US5576303A

experiment-summary: Digestion test in vitro (salivary amylase)
Type: in vitro ADME
setup-conditions: Table 4, salivary amylase, read-out: Decomposition rate
experimental-readout: metabolised (%)
Write it as a number; the unit % goes unstated.

Identify measured metabolised corresponding to OC[C@H]1O[C@H](O[C@H]2O[C@H](CO)[C@@H](O)[C@H](O)[C@H]2O)[C@H](O)[C@@H](O)[C@@H]1O [trehalose, O-α-D-glucopyranosyl α-D-glucopyranoside]
0

---

experiment-summary: Acute toxicity test
Assay type: in vivo
setup-conditions: mouse, in vivo; oral, mice; "the value was not so accurate"
experimental-readout: LD50

Give the measured LD50 for OC[C@H]1O[C@H](O[C@H]2O[C@H](CO)[C@@H](O)[C@H](O)[C@H]2O)[C@H](O)[C@@H](O)[C@@H]1O [trehalose, O-α-D-glucopyranosyl α-D-glucopyranoside]
≥ 50000 mg/kg

---

experiment-summary: Digestion test in vitro (gastric acid)
Format: in vitro ADME
setup-conditions: Table 4, gastric acid, read-out: Decomposition rate
experimental-readout: degraded

Provide measured degraded value, entry: OC[C@H]1O[C@H](O[C@H]2O[C@H](CO)[C@@H](O)[C@H](O)[C@H]2O)[C@H](O)[C@@H](O)[C@@H]1O [trehalose, O-α-D-glucopyranosyl α-D-glucopyranoside]
0%

---

experiment-summary: Digestion test in vitro (pancreatic amylase)
Format: in vitro ADME
setup-conditions: Table 4, pancreatic amylase, read-out: Decomposition rate
experimental-readout: metabolised (%)
Respond numerically; units are % and should not be typed.

Note down metabolised recorded for OC[C@H]1O[C@H](O[C@H]2O[C@H](CO)[C@@H](O)[C@H](O)[C@H]2O)[C@H](O)[C@@H](O)[C@@H]1O [trehalose, O-α-D-glucopyranosyl α-D-glucopyranoside]
0

---

experiment-summary: Digestion test in vitro (enzyme derived from rat small intestinal mucous membrane)
Type: in vitro ADME
setup-conditions: small intestinal mucosa enzyme, Tables 4 and 5, rat small intestinal enzyme, read-out: Decomposition rate
Label yes when metabolised < 10%; otherwise no.

Past entries and their recorded results:
compound	class-name
OC[C@H]1O[C@@H](O[C@H]2[C@H](O)[C@@H](O)C(O)O[C@@H]2CO)[C@H](O)[C@@H](O)[C@@H]1O (stereo partly drawn) [Cellobiose]	yes
OC[C@H]1O[C@H](OC[C@H]2OC(O)[C@H](O)[C@@H](O)[C@@H]2O)[C@H](O)[C@@H](O)[C@@H]1O (stereo partly drawn) [Isomaltose]	no
OC[C@H]1O[C@H](O[C@H]2O[C@H](CO)[C@@H](O)[C@H](O)[C@H]2O)[C@H](O)[C@@H](O)[C@@H]1O [trehalose, O-α-D-glucopyranosyl α-D-glucopyranoside]	yes
OC[C@H]1O[C@H](O[C@H]2[C@H](O)[C@@H](O)[C@H](O)O[C@@H]2CO)[C@H](O)[C@@H](O)[C@@H]1O (mixture of isomers) [Maltose]	no
OC[C@H]1O[C@@H](O[C@H]2[C@H](O)[C@@H](O)C(O)O[C@@H]2CO)[C@H](O)[C@@H](O)[C@H]1O (stereo partly drawn) [Lactose]	yes

Input OC[C@H]1O[C@@](CO)(O[C@H]2O[C@H](CO)[C@@H](O)[C@H](O)[C@H]2O)[C@@H](O)[C@@H]1O [Sucrose] ; condition: metabolised strictly below 10%. Does it hold?
no
